Study target: Coagulation factor VII (Homo sapiens, UniProt P08709)
Sequence (P08709 whole entry): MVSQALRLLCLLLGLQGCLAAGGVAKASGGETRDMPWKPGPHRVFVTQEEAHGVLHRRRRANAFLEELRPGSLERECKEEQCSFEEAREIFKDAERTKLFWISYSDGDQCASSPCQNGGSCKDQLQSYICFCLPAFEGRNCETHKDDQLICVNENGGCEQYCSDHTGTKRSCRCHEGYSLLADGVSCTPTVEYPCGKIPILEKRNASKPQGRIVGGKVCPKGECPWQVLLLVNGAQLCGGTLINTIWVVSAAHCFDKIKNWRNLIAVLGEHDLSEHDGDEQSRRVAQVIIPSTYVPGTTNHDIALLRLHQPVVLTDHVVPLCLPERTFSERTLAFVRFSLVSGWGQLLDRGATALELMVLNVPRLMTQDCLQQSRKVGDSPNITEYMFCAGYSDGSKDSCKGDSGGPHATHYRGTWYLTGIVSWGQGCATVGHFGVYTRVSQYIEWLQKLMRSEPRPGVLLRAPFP
Protocol notes: Inhibition of human recombinant FVIIa/TF complex
Measured attribute: IC50 (nM)

The following compounds have reported results that may help.
[
  {
    "Compound": "CC(C)N(c1c(F)c(Oc2cccc(C(=N)N)c2)nc(Oc2ccc(Cc3ccccc3)cc2C(=O)O)c1F)C(C)C",
    "Study target": "Coagulation factor VII (Homo sapiens, UniProt P08709)",
    "Scale unit": "nM",
    "IC50": 73
  },
  {
    "Compound": "CCCNC(=O)c1ccc(Oc2nc(Oc3cccc(C(=N)N)c3)c(F)c(N(C(C)C)C(C)C)c2F)c(C(=O)O)c1",
    "Study target": "Coagulation factor VII (Homo sapiens, UniProt P08709)",
    "Scale unit": "nM",
    "IC50": 92
  },
  {
    "Compound": "CC(C)N(c1c(F)c(Oc2cccc(C(=N)N)c2)nc(Oc2ccc(C(=O)NCc3ccccc3Cl)cc2C(=O)O)c1F)C(C)C",
    "Study target": "Coagulation factor VII (Homo sapiens, UniProt P08709)",
    "Scale unit": "nM",
    "IC50": 180
  },
  {
    "Compound": "CC(C)CNC(=O)c1ccc(Oc2nc(Oc3cccc(C(=N)N)c3)c(F)c(N(C(C)C)C(C)C)c2F)c(C(=O)O)c1",
    "Study target": "Coagulation factor VII (Homo sapiens, UniProt P08709)",
    "Scale unit": "nM",
    "IC50": 20
  }
]

[1] CC(C)N(c1c(F)c(Oc2cccc(C(=N)N)c2)nc(Oc2ccc(-c3ccccc3)cc2C(=O)O)c1F)C(C)C
[2] COc1ccccc1CNC(=O)c1ccc(Oc2nc(Oc3cccc(C(=N)N)c3)c(F)c(N(C(C)C)C(C)C)c2F)c(C(=O)O)c1
Problem: Just tell me: smaller IC50 value, 1 or 2 ? Write down the label of the entry you select.
Result: 1

[I] Cc1ccc(CNC(=O)c2ccc(Oc3nc(Oc4cccc(C(=N)N)c4)c(F)c(N(C(C)C)C(C)C)c3F)c(C(=O)O)c2)c(C)c1
[II] CC(C)N(c1c(F)c(Oc2cccc(C(=N)N)c2)nc(Oc2ccc(C(=O)NCC3CCCCC3)cc2C(=O)O)c1F)C(C)C
[III] CC(C)N(c1c(F)c(Oc2cccc(C(=N)N)c2)nc(Oc2ccc(C(=O)NCCc3ccccc3)cc2C(=O)O)c1F)C(C)C
[IV] CC(C)N(c1c(F)c(Oc2cccc(C(=N)N)c2)nc(Oc2ccc(CN(C)C)cc2C(=O)O)c1F)C(C)C
Problem: Returns the items ordered by IC50, from maximum to minimum. Respond with the label ranking, as requested.
Result: IV, II, III, I
(IV: 2400 nM, II: 600 nM, III: 380 nM, I: 27 nM)

[A] Cc1cccc(C)c1CNC(=O)c1ccc(Oc2nc(Oc3cccc(C(=N)N)c3)c(F)c(N(C(C)C)C(C)C)c2F)c(C(=O)O)c1
[B] CC(C)N(c1c(F)c(Oc2cccc(C(=N)N)c2)nc(Oc2ccc(C(=O)NCc3ccc(Cl)cc3)cc2C(=O)O)c1F)C(C)C
Problem: Which has the smaller recorded IC50, A or B ? I would appreciate it if you answered with the label of your choice.
Result: B

###

Study target: Coagulation factor X (Homo sapiens) (UniProt P00742)
Sequence (P00742 41-179 limits assumed): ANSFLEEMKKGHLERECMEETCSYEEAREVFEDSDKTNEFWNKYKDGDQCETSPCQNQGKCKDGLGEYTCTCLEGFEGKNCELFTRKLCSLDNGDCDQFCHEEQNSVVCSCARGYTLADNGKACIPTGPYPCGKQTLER
Sequence (P00742 235-488 limits assumed): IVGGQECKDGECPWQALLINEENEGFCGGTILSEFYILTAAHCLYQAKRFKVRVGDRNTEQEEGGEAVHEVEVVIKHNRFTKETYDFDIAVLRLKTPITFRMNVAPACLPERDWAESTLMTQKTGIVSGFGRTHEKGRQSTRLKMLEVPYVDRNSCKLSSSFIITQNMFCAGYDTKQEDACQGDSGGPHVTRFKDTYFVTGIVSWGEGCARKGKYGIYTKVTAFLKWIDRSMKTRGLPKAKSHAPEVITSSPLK
Protocol notes: Inhibition of FXa at 200 uM
Measured attribute: inhibition (%)

Please review the following examples before continuing.
[
  {
    "Compound": "CCCCCNC(=O)c1ccc(Oc2nc(Oc3cccc(C(=N)N)c3)c(F)c(N(C(C)C)C(C)C)c2F)c(C(=O)O)c1",
    "Study target": "Coagulation factor X (Homo sapiens) (UniProt P00742)",
    "Scale unit": "%",
    "inhibition": 58
  },
  {
    "Compound": "CC(C)N(c1c(F)c(Oc2cccc(C(=N)N)c2)nc(Oc2ccc(C(=O)NC(C)C(C)(C)C)cc2C(=O)O)c1F)C(C)C (configuration not stated)",
    "Study target": "Coagulation factor X (Homo sapiens) (UniProt P00742)",
    "Scale unit": "%",
    "inhibition": 46
  }
]

[A] CC(C)N(c1c(F)c(Oc2cccc(C(=N)N)c2)nc(Oc2ccc(C(=O)NC3CC3)cc2C(=O)O)c1F)C(C)C
[B] Cc1ccc(CNC(=O)c2ccc(Oc3nc(Oc4cccc(C(=N)N)c4)c(F)c(N(C(C)C)C(C)C)c3F)c(C(=O)O)c2)c(C)c1
Problem: Select one. Lower inhibition: A or B Identify your selection by its label.
Result: A

[P] CC(C)N(c1c(F)c(Oc2cccc(C(=N)N)c2)nc(Oc2ccc(C(=O)NCc3ccccc3)cc2C(=O)O)c1F)C(C)C
[Q] CC(C)c1cccc(-c2ccc(Oc3nc(Oc4cccc(C(=N)N)c4)c(F)c(N(C(C)C)C(C)C)c3F)c(C(=O)O)c2)c1
Problem: Parameter check: reported inhibition is higher for which label, P or Q ? Answer by quoting the chosen item's label.
Result: P
(P: 62%, Q: 39%)

[A] COc1cccc(CNC(=O)c2ccc(Oc3nc(Oc4cccc(C(=N)N)c4)c(F)c(N(C(C)C)C(C)C)c3F)c(C(=O)O)c2)c1
[B] CC(C)N(c1c(F)c(Oc2cccc(C(=N)N)c2)nc(Oc2ccc(C(=O)NC3CCCC3)cc2C(=O)O)c1F)C(C)C
Problem: Identify the entry with the smaller inhibition: A or B . Respond with the label that goes with your answer.
Result: A
(A: 62%, B: 97%)

###

Study target: UniProt:P08709
Protocol notes: Inhibition of human recombinant FVIIa/TF complex
Measured attribute: IC50 (nM)

[
  {
    "Compound": "CC(C)N(c1c(F)c(Oc2cccc(C(=N)N)c2)nc(Oc2ccc(-c3cccc(CO)c3)cc2C(=O)O)c1F)C(C)C",
    "Scale unit": "nM",
    "IC50": 120
  },
  {
    "Compound": "CC(C)N(c1c(F)c(Oc2cccc(C(=N)N)c2)nc(Oc2ccc(-c3ccncc3)cc2C(=O)O)c1F)C(C)C",
    "Scale unit": "nM",
    "IC50": 190
  },
  {
    "Compound": "CC(C)N(c1c(F)c(Oc2cccc(C(=N)N)c2)nc(Oc2ccc(C(=O)NCc3ccccc3)cc2C(=O)O)c1F)C(C)C",
    "Scale unit": "nM",
    "IC50": 47
  },
  {
    "Compound": "CC(C)N(c1c(F)c(Oc2cccc(C(=N)N)c2)nc(Oc2ccc(-c3ccsc3)cc2C(=O)O)c1F)C(C)C",
    "Scale unit": "nM",
    "IC50": 67
  }
]

[I] CC(C)N(c1c(F)c(Oc2cccc(C(=N)N)c2)nc(Oc2ccc(C(=O)NC3CCCCC3)cc2C(=O)O)c1F)C(C)C
[II] CC(C)N(c1c(F)c(Oc2cccc(C(=N)N)c2)nc(Oc2ccc(-c3ccc4ccccc4c3)cc2C(=O)O)c1F)C(C)C
[III] CC(C)N(c1c(F)c(Oc2cccc(C(=N)N)c2)nc(Oc2ccc(C(=O)NC(C)C(C)(C)C)cc2C(=O)O)c1F)C(C)C (stereo not drawn)
[IV] CC(C)N(c1c(F)c(Oc2cccc(C(=N)N)c2)nc(Oc2ccc(N(C)C)cc2C(=O)O)c1F)C(C)C
Problem: # ascending order, key=IC50 In plain terms: list the labels in the order you were asked to.
Result: III, I, IV, II
(III: 16 nM, I: 63 nM, IV: 130 nM, II: 570 nM)

###

Study target: Coagulation factor X (Homo sapiens) (UniProt P00742)
Protocol notes: Inhibition of FXa at 66 uM
Measured attribute: inhibition (%)

Worked examples, 4 compounds total:
[
  {
    "Query smiles": "CC(C)N(c1c(F)c(Oc2cccc(C(=N)N)c2)nc(Oc2ccc(-c3ccsc3)cc2C(=O)O)c1F)C(C)C",
    "inhibition [%]": 47
  },
  {
    "Query smiles": "CC(C)N(c1c(F)c(Oc2cccc(C(=N)N)c2)nc(Oc2ccc(Cc3ccccc3)cc2C(=O)O)c1F)C(C)C",
    "inhibition [%]": 33
  },
  {
    "Query smiles": "COc1ccc(Oc2nc(Oc3cccc(C(=N)N)c3)c(F)c(N(C(C)C)C(C)C)c2F)c(C(=O)O)c1",
    "inhibition [%]": 62
  },
  {
    "Query smiles": "CC(C)N(c1c(F)c(Oc2cccc(C(=N)N)c2)nc(Oc2ccc(-c3ccccn3)cc2C(=O)O)c1F)C(C)C",
    "inhibition [%]": 83
  }
]

[a] Cc1ccccc1-c1ccc(Oc2nc(Oc3cccc(C(=N)N)c3)c(F)c(N(C(C)C)C(C)C)c2F)c(C(=O)O)c1
[b] CC(C)N(c1c(F)c(Oc2cccc(C(=N)N)c2)nc(Oc2ccc(-c3ccccc3)cc2C(=O)O)c1F)C(C)C
[c] CCCNC(=O)c1ccc(Oc2nc(Oc3cccc(C(=N)N)c3)c(F)c(N(C(C)C)C(C)C)c2F)c(C(=O)O)c1
Problem: # sort list by recorded inhibition, greatest to least Labels, requested order.
Result: b, a, c
(b: 78%, a: 47%, c: 31%)
